- target under test: UniProt P30561
- protocol: In vitro assay 3: antagonism in mouse cell line (AHR transactivation, firefly luciferase reporter, kynurenic acid prestimulated)
- Format: cell-based
- conditions used: mouse Hepa 1c1c7 cells, 200 μM kynurenic acid, 20 hours, read-out: AHR Antagonism Mouse IC50
measured endpoint: IC50 (nM)

Worked set:
Reading of IC50 for O=C1NCCNCC1Nc1nc2cccc(C3CC3)c2c2nc(-c3cccc(F)c3)nn12 (stereo not shown) [Example 295] with UniProt P30561: 2910

Record COc1cccc(-c2nc3c4cc(F)ccc4nc(N[C@@H]4CCCCNC4=O)n3n2)c1 has UniProt P30561 IC50 equal to 0.227

Response field IC50 (UniProt P30561) for item COc1ccc(-c2nc3c4cc(C#N)ccc4nc(N[C@@H]4CCCCNC4=O)n3n2)cc1 : 8.7

Simply: CC(C)c1cccc2c1nc(N[C@@H]1CCCCNC1=O)n1nc(-c3cnn(C)c3)nc21 , UniProt P30561, IC50 = 1060

Observed IC50 on UniProt P30561, entry CCNC(=O)C(CC)Nc1nc2ccccc2c2nc(-c3ccccc3OC(F)(F)F)nn12 (stereo not shown) [Example 463] , equals 1.88

[I] CCn1cc(-c2nc3c4cccc(C(F)(F)F)c4nc(N[C@@H]4CCCCNC4=O)n3n2)cn1
[II] CCCCNC(=O)[C@@H](C)Nc1nc2c(Br)cccc2c2nc(-c3ccc(Cl)cc3OC(F)F)nn12
[III] N#Cc1ccc(-c2nc3c4cccc(Br)c4nc(N[C@@H]4CCNC4=O)n3n2)cc1
[IV] Cn1cc(-c2nc3c4cccc(Br)c4nc(N[C@H]4CCCCNC4=O)n3n2)cn1
[V] O=C1NCCCC[C@H]1Nc1nc2cccc(C3CC3)c2c2nc(-c3cccc(F)c3)nn12
Hello, I need these entries ordered by IC50, highest reading first. Thanks! // list labels; follow requested order
IV, V, III, I, II

[P] COc1ccc(-c2nc3c4c(Cl)cccc4nc(NC4CNCCNC4=O)n3n2)cc1 (single isomer, unassigned) [Example 296]
[Q] NC(=O)[C@@H](CO)Nc1nc2ccccc2c2nc(-c3ccc(OC(F)(F)F)cc3)nn12
[R] CCn1cc(-c2nc3c4ccccc4nc(N[C@@H]4CCCCNC4=O)n3n2)c(C)n1
[S] COc1ccc(-c2nc3c4ccccc4nc(N[C@H](C)C(=O)NCCN4CCOCC4)n3n2)cc1
[T] COc1cccc(-c2nc3c4cc(F)ccc4nc(N[C@H]4CCCCNC4=O)n3n2)c1
Rank entries according to their IC50, from the largest number down. Please respond by ranking the labels in the order requested.
P, T, S, Q, R

----------
- target under test: AHR (Mus musculus)
- Sequence (P30561 whole entry P471L/N533S/M589L, form open): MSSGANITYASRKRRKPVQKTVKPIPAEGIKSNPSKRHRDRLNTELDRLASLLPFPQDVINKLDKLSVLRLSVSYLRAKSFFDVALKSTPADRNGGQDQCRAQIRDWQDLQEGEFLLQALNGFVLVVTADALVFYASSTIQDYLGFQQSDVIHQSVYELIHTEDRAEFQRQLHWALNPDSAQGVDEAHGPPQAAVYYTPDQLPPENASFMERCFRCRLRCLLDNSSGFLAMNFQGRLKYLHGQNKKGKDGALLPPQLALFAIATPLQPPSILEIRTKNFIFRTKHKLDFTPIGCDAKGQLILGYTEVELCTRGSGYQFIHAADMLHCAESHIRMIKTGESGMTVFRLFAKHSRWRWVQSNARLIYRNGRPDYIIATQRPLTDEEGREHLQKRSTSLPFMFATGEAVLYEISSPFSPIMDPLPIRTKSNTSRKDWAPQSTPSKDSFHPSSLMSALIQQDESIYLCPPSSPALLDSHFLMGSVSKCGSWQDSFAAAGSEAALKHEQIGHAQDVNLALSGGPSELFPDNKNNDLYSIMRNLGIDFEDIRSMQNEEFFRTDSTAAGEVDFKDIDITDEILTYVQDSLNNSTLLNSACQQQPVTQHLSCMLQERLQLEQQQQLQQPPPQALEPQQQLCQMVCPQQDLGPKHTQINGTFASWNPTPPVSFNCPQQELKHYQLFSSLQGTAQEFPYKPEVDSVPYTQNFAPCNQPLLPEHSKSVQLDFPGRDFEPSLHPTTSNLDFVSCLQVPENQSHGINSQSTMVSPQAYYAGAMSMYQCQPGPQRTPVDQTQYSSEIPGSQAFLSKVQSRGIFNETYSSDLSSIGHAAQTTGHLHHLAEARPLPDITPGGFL
- protocol: In vitro assay 3: antagonism in mouse cell line (AHR transactivation, firefly luciferase reporter, kynurenic acid prestimulated)
- Type: cell-based
- conditions used: mouse Hepa 1c1c7 cells, 200 μM kynurenic acid, 20 hours, read-out: AHR Antagonism Mouse IC50
pIC50: −log10 of the molar value.
measured endpoint: pIC50

CS(=N)(=O)c1ccc(-c2nc3c4ccccc4nc(N[C@@H]4CCCCNC4=O)n3n2)cc1 (some centres unmarked) [Example 306] yielded pIC50 of 7.51

Field pIC50 (entry Cn1cc(-c2nc3c4cccc(C(F)(F)F)c4nc(N[C@@H]4CCCNC4=O)n3n2)cn1 ) reads 6.08

Note to self: pIC50 recorded for O=C1NCCCC[C@H]1Nc1nc2ccccc2c2nc(-c3ccsc3Cl)nn12 was 8.50

The reported pIC50 of the compound Cn1cc(-c2nc3c4cccc(Br)c4nc(N[C@@H]4CCCCNC4=O)n3n2)cn1 was 8.60

[P] CN(C)CCn1cc(-c2nc3c4ccccc4nc(N[C@@H]4CCCCNC4=O)n3n2)cn1
[Q] COc1ccc(-c2nc3c4c(C#N)cccc4nc(N[C@@H]4CCCCNC4=O)n3n2)cc1
[R] Cn1cc(-c2nc3c4cccc(F)c4nc(N[C@@H]4CNCCNC4=O)n3n2)cn1
# desc sort on pIC50 across 3 compounds To answer, arrange all of the labels according to the requested order.
Q, R, P

[a] CC[C@@H](Nc1nc2ccccc2c2nc(-c3cc(Cl)ccc3OC(F)(F)F)nn12)C(N)=O
[b] Cn1cc(-c2nc3c4cccc(Br)c4nc(N[C@@H]4CCCNC4=O)n3n2)cn1
[c] Cc1sccc1-c1nc2c3ccccc3nc(N[C@H]3CCCCNC3=O)n2n1
[d] COc1ccc(-c2nc3c4ccccc4nc(NC4CCCCCNC4=O)n3n2)cc1 (centres unmarked)
[e] COc1ccc(-c2nc3c4ccccc4nc(NC4CCNC4=O)n3n2)cc1 (centres unmarked)
Ascending sort, pIC50. To answer, arrange all of the labels according to the requested order.
b, a, e, c, d

[1] COc1ccc(-c2nc3c4cccc(SC(C)C)c4nc(N[C@@H]4CCCCNC4=O)n3n2)cc1
[2] CCCCNC(=O)[C@H](C)Nc1nc2ccccc2c2nc(-c3ccc(Cl)cc3OC(F)F)nn12
Hi, I'm comparing two records. Which one has the lower pIC50, 1 or 2 ? Give the label under which the chosen entry appears.
1

[I] COc1ccc(-c2nc3c4ccccc4nc(N[C@@H]4CN(C)CCNC4=O)n3n2)cc1
[II] Cn1nccc1-c1nc2c3ccccc3nc(N[C@@H]3CCCCNC3=O)n2n1
Which numeric pIC50 is bigger, that of I or that of II ? Reply briefly: the label of your chosen item.
II

Recorded values, source patent US20230113037A1.
